System: PCP receptor
Test Description: [3H]TCP radioreceptor assay (binding to PCP recognition sites)
Parameters: species or system rat (male Sprague-Dawley, whole brain)
Stated Conditions: [3H]TCP approx. 1 nM, rat brain membranes; mean of at least two determinations
pKi: −log10 of the molar value.
Use true (1) when the recorded pKi is no lower than 8; use false (0) when it is lower.

{"Compound": "OCc1cccc2c1C1c3cccc[n+]3C2CC1(c1ccoc1)c1ccoc1.[O-][Cl+3]([O-])([O-])[O-] (stereo not shown) [182(e)]", "Category Label": "false (0)"}
{"Compound": "Oc1cccc2c1C1c3cccc[n+]3C2CC1(c1ccoc1)c1ccoc1.[Cl-] (stereo not shown) [Example 68(c)]", "Category Label": "true (1)"}
{"Compound": "Cn1ccc(C2(c3ccn(C)n3)CC3c4ccccc4C2c2cccc[n+]23)n1 (stereo not shown) [158(f)]", "Category Label": "false (0)"}
{"Compound": "CCCCCCCCOc1cccc2c1C1c3cccc[n+]3C2CC1(c1ccoc1)c1ccoc1.[O-][Cl+3]([O-])([O-])[O-] (stereo not shown) [Example 172]", "Category Label": "false (0)"}
{"Compound": "CC(=O)Oc1cccc2c1C1c3cccc[n+]3C2CC1(c1ccoc1)c1ccoc1 (stereo not shown) [Example 169]", "Category Label": "true (1)"}
{"Compound": "Oc1ccc2c(c1)C1c3cccc[n+]3C2CC1(c1ccoc1)c1ccoc1 (stereo not shown) [Example 193]", "Category Label": "true (1)"}
{"Compound": "COc1cccc2c1C1c3cccc[n+]3C2CC1(c1cc[nH]n1)c1cc[nH]n1 (stereo not shown) [179(b)]", "Category Label": "false (0)"}
{"Compound": "c1ccc2c(c1)C1CC(c3cn[nH]c3)(c3cn[nH]c3)C2c2cccc[n+]21 (stereo not shown) [161(d)]", "Category Label": "false (0)"}
{"Compound": "Oc1cccc2c1C1c3cccc[n+]3C2CC1(c1cc[nH]n1)c1cc[nH]n1 (stereo not shown) [175(b)]", "Category Label": "false (0)"}
{"Compound": "CCCCCCCCOC(=O)CC(C)(C)C(=O)Oc1cccc2c1C1c3cccc[n+]3C2CC1(c1ccoc1)c1ccoc1 (stereo not shown) [194(d)]", "Category Label": "false (0)"}
{"Compound": "O=[N+]([O-])c1cccc2c1C1CC(c3ccoc3)(c3ccoc3)C2c2cccc[n+]21.[O-][Cl+3]([O-])([O-])[O-] (single isomer, unassigned) [Example 201(c)]", "Category Label": "false (0)"}
{"Compound": "CC1C2c3ccccc3C(c3cccc[n+]32)C1(c1ccccc1)c1ccccc1 (stereo not shown) [Example 18]", "Category Label": "false (0)"}
{"Compound": "Brc1cc2cn[nH]c2c2cc3cccc[n+]3cc12 [186(g)]", "Category Label": "false (0)"}
{"Compound": "c1csc(C2(c3cccs3)CC3c4ccccc4C2c2cccc[n+]23)c1 (stereo not shown) [48(b)]", "Category Label": "true (1)"}
{"Compound": "CCCCC12CC(c3ccccc3)(c3ccccc3)C(c3ccccc31)c1cccc[n+]12.[O-][Cl+3]([O-])([O-])[O-] (stereo not shown) [59(c)]", "Category Label": "false (0)"}
{"Compound": "COc1ccc[n+]2c1C1c3ccccc3C2CC1(c1ccoc1)c1ccoc1 (stereo not shown) [164(e)]", "Category Label": "false (0)"}
{"Compound": "c1ccc2c(c1)C1C3CCc4sccc4C3(c3ccoc3)C2c2cccc[n+]21 (stereo not shown) [15(c)]", "Category Label": "true (1)"}
{"Compound": "CCOC1(c2ccoc2)CC2c3ccccc3C1c1cccc[n+]12 (stereo not shown) [11(F)]", "Category Label": "false (0)"}
{"Compound": "CC12CC(c3ccoc3)(c3ccoc3)C(c3ccccc31)c1cccc[n+]12 (stereo not shown) [50(b)]", "Category Label": "true (1)"}
{"Compound": "[O-][Cl+3]([O-])([O-])[O-].c1ccc(C2(N3CCOCC3)CC3c4ccccc4C2c2cccc[n+]23)cc1 (stereo not shown) [111(b)]", "Category Label": "false (0)"}
{"Compound": "CC12CC(c3cccs3)(c3cccs3)C(c3ccccc31)c1cccc[n+]12 (stereo not shown) [47(d)]", "Category Label": "true (1)"}

###

System: PCP receptor
Test Description: [3H]TCP radioreceptor assay (binding to PCP recognition sites)
Set-up: species or system rat (male Sprague-Dawley, whole brain)
Stated Conditions: [3H]TCP approx. 1 nM, rat brain membranes; mean of at least two determinations
pKi: −log10 of the molar value.
The following compounds are shown together with reported pKi values.

{"Compound": "CCOC1(c2ccoc2)CC2c3ccccc3C1c1cccc[n+]12 (centres unmarked) [11(g)]", "pKi": 7.74}
{"Compound": "CC(C)(C)C(=O)Oc1cccc2c1C1c3cccc[n+]3C2CC1(c1ccoc1)c1ccoc1 (centres unmarked)", "pKi": 7.63}
{"Compound": "c1ccc2c(c1)C1CC(c3ccoc3)(c3ccoc3)C2c2c3ccccc3cc[n+]21 (centres unmarked)", "pKi": 7.70}
{"Compound": "COc1ccc(C2(c3ccc(OC)cc3)CC3c4ccccc4C2c2cccc[n+]23)cc1 (centres unmarked)", "pKi": 4.55}
{"Compound": "CCOC1(c2ccoc2)C2c3ccccc3C(C1C)[n+]1ccccc12 (single isomer, unassigned)", "pKi": 8.55}
{"Compound": "c1ccc(C2(c3ccccc3)CC3c4ccccc4C2c2cccc[n+]23)cc1 (centres unmarked)", "pKi": 8.09}
{"Compound": "Cc1ccc(S(=O)(=O)n2nccc2C2(c3ccoc3)CC3c4ccccc4C2c2cccc[n+]23)cc1 (single isomer, unassigned)", "pKi": 4.89}
{"Compound": "c1ccc2c(c1)CC1C2C2c3ccccc3C1[n+]1ccccc12 (single isomer, unassigned) [Example 2(b)]", "pKi": 6.58}

###

System: PCP receptor
Test Description: [3H]TCP radioreceptor assay (binding to PCP recognition sites)
Design: species or system rat (male Sprague-Dawley, whole brain)
Stated Conditions: [3H]TCP approx. 1 nM, rat brain membranes; mean of at least two determinations
The following compounds are shown together with reported Ki values.
Quantity: Ki (nM)

{"Compound": "c1ccc2c(c1)C1C3CCc4occc4C3(c3cc4ccccc4o3)C2c2cccc[n+]21 (stereo not shown) [10(c-k)]", "Unit Abbrev": "nM", "Value Reported": 696}
{"Compound": "CC12c3ccccc3C(c3cccc[n+]31)C(c1ccccc1)(c1ccccc1)C21CC1 (stereo not shown)", "Unit Abbrev": "nM", "Value Reported": 22.3}
{"Compound": "Oc1ccc[n+]2c1C1c3ccccc3C2CC1(c1ccoc1)c1ccoc1 (stereo not shown)", "Unit Abbrev": "nM", "Value Reported": 306}
{"Compound": "CCOC1(c2ccoc2)CC2(C)c3ccccc3C1c1cccc[n+]12.[O-][Cl+3]([O-])([O-])[O-] (stereo not shown)", "Unit Abbrev": "nM", "Value Reported": 19}

###

System: PCP receptor
Test Description: [3H]TCP radioreceptor assay (binding to PCP recognition sites)
Parameters: species or system rat (male Sprague-Dawley, whole brain)
Stated Conditions: [3H]TCP approx. 1 nM, rat brain membranes; mean of at least two determinations
pKi: −log10 of the molar value.
Quantity: pKi

{"Compound": "COc1cccc(C2(c3cccc(OC)n3)CC3c4ccccc4C2c2cccc[n+]23)n1.[O-][Cl+3]([O-])([O-])[O-] (stereo not shown) [67(e)]", "System": "PCP receptor", "Quantity": "pKi", "Value Reported": 7.10}
{"Compound": "Clc1ccc2c(c1)C1c3cccc[n+]3C2CC1(c1ccn[nH]1)c1ccn[nH]1 (stereo not shown) [189(b)]", "System": "PCP receptor", "Quantity": "pKi", "Value Reported": 7.65}
{"Compound": "COc1cccc2c1C1c3cccc[n+]3C2CC1(c1ccccc1)c1ccccc1 (stereo not shown) [Example 26]", "System": "PCP receptor", "Quantity": "pKi", "Value Reported": 7.49}
{"Compound": "Brc1ccc(Br)c2c1C1CC(c3ccoc3)(c3ccoc3)C2c2cccc[n+]21.[O-][Cl+3]([O-])([O-])[O-] (stereo not shown) [60(e)]", "System": "PCP receptor", "Quantity": "pKi", "Value Reported": 6.46}
{"Compound": "c1ccc(C23c4ccccc4CC2C2c4ccccc4C3c3cccc[n+]32)cc1 (stereo not shown) [Example 1F]", "System": "PCP receptor", "Quantity": "pKi", "Value Reported": 8.12}
{"Compound": "Fc1ccc2c(c1)C1c3cccc[n+]3C2CC1(c1ccoc1)c1ccoc1.[O-][Cl+3]([O-])([O-])[O-] (stereo not shown) [196(c)]", "System": "PCP receptor", "Quantity": "pKi", "Value Reported": 8.39}
{"Compound": "[Cl-].c1ccc2c(c1)C1CC(c3ccoc3)(c3ccoc3)C2c2cccc[n+]21 (stereo not shown) [39(c)]", "System": "PCP receptor", "Quantity": "pKi", "Value Reported": 8.75}
{"Compound": "[O-][Cl+3]([O-])([O-])[O-].c1ccc2c(c1)C1CC(c3ccoc3)(c3ccn[nH]3)C2c2cccc[n+]21 (single isomer, unassigned) [185(b)]", "System": "PCP receptor", "Quantity": "pKi", "Value Reported": 8.20}
{"Compound": "[O-][Cl+3]([O-])([O-])[O-].c1ccc2c(c1)C1CC(c3cocn3)(c3cocn3)C2c2cccc[n+]21 (stereo not shown) [53(g)]", "System": "PCP receptor", "Quantity": "pKi", "Value Reported": 7.03}
{"Compound": "N#CC12CC(c3ccoc3)(c3ccoc3)C(c3ccccc31)c1cccc[n+]12 (stereo not shown) [171(b)]", "System": "PCP receptor", "Quantity": "pKi", "Value Reported": 7.99}
{"Compound": "Clc1cccc(C2(c3cccc(Cl)c3)CC3c4ccccc4C2c2cccc[n+]23)c1 (stereo not shown) [55(b)]", "System": "PCP receptor", "Quantity": "pKi", "Value Reported": 6.98}
{"Compound": "CC(C)Oc1cccc2c1C1c3cccc[n+]3C2CC1(c1ccccc1)c1ccccc1 (stereo not shown) [32(F)]", "System": "PCP receptor", "Quantity": "pKi", "Value Reported": 6.33}
{"Compound": "c1ccc2c(c1)C1CC(c3cnn[nH]3)(c3cnn[nH]3)C2c2cccc[n+]21 (stereo not shown) [70(F)]", "System": "PCP receptor", "Quantity": "pKi", "Value Reported": 5.42}
{"Compound": "c1ccc2c(c1)C1C3CCc4occc4C3(c3cc4ccccc4o3)C2c2cccc[n+]21 (stereo not shown) [Example 10(c)]", "System": "PCP receptor", "Quantity": "pKi", "Value Reported": 5.96}
{"Compound": "Brc1cccc(C2(c3cccc(Br)c3)CC3c4ccccc4C2c2cccc[n+]23)c1 (stereo not shown) [36(c)]", "System": "PCP receptor", "Quantity": "pKi", "Value Reported": 6.73}
{"Compound": "c1ccc2c(c1)C1CC(c3ccsc3)(c3ccsc3)C2c2cccc[n+]21 (stereo not shown) [52(F)]", "System": "PCP receptor", "Quantity": "pKi", "Value Reported": 8.74}
{"Compound": "c1cncc(C2(c3cccnc3)CC3c4ccccc4C2c2cccc[n+]23)c1 (stereo not shown) [42(E)]", "System": "PCP receptor", "Quantity": "pKi", "Value Reported": 5.64}
{"Compound": "FC(F)(F)c1ccc2c(c1)C1c3cccc[n+]3C2CC1(c1ccccc1)c1ccccc1 (stereo not shown) [45(E), hydrate]", "System": "PCP receptor", "Quantity": "pKi", "Value Reported": 6.31}
{"Compound": "COc1c(Cl)ccc2c1C1c3cccc[n+]3C2CC1(c1ccoc1)c1ccoc1 (stereo not shown) [187(g)]", "System": "PCP receptor", "Quantity": "pKi", "Value Reported": 7.20}
